Settings: buffer; pH 7.4; 200.0 µM
Measured quantity: solubility kinetic

compound_structure=CCc1onc(C)c1C(=O)Nc1ccc2c(c1)OCO2 measured_quantity="solubility kinetic" reported_result="> 41.1 µg/mL"
compound_structure=C=C(C)CNC(=S)Nc1cccc(N)n1 measured_quantity="solubility kinetic" reported_result="> 33.3 µg/mL"

Here's the next entry for you.
Query string: Field request: solubility kinetic | item: `O=c1[nH]c2ccc(S(=O)(=O)N3CCCC3)cc2[nH]1`
Result string: > 40.1 µg/mL

---

Exercise: state measured solubility kinetic for each of the compounds provided.
Conditions: buffer; pH 7.4; 200.0 µM

State the recorded solubility kinetic for every item in the following list.
1. COc1cc2c(cc1OC)C(NC(=O)C(F)(F)F)C/C2=N\O (stereo unspecified)
2. C=CCNC(=O)c1ccc([N+](=O)[O-])c(Cl)c1
3. O=C(O)C1Nc2ccc(Br)cc2C2C=CCC12 (stereo unspecified)

Result string:
["> 47.7 µg/mL", "> 36.1 µg/mL", "43.6 µg/mL"]

Fill in solubility kinetic for each of the 3 compounds listed.
1. O=C(CNC(=O)c1ccco1)NNC(=O)c1ccc(Br)cc1
2. Cc1nc(/C(=N/O)C(N)=O)cs1
3. Cc1ccc(Cl)c(OCC(=O)OCC(=O)c2ccc[nH]2)c1

Result string:
1. > 54.9 µg/mL
2. > 27.8 µg/mL
3. 8.7 µg/mL

---

Settings: buffer; pH 7.4; 200.0 µM
Measured quantity: solubility kinetic

molecule=O=C(COC(=O)c1cccc(O)c1)NCc1ccc2c(c1)OCO2 measured_quantity="solubility kinetic" reported_result="> 49.4 µg/mL"
molecule=CCCNCC(=O)Nc1cccc(S(=O)(=O)NC2=NCCCCC2)c1.O=C(O)C(=O)O measured_quantity="solubility kinetic" reported_result="> 68.5 µg/mL"
molecule=COc1cc(C(=O)O/N=C2\C=CC(=O)C(C)=C2)cc(OC)c1OC measured_quantity="solubility kinetic" reported_result="> 49.7 µg/mL"
molecule="O=C1NC(Cc2c[nH]c3ccccc23)C(=O)N1Cc1ccccc1 (configuration not stated)" measured_quantity="solubility kinetic" reported_result="> 47.9 µg/mL"
molecule="COc1ccccc1/C=[N+](\\[O-])C1SC(=S)N(C)C1(C)C (configuration not stated)" measured_quantity="solubility kinetic" reported_result="> 46.6 µg/mL"

// input: 6 molecules below; output: solubility kinetic for each
1. Cc1ccccc1-c1nnc(SCC(=O)Nc2cccnc2Cl)o1
2. CC1Cc2ccccc2N1C(=O)c1ccc2c(c1)OCO2 (configuration not stated)
3. CC(=O)Nc1cc2c3c(c1)CC(=O)N3CCC2
4. Cc1cccc(-n2cnc(C(=O)N3CCN(C)CC3)c2)n1
5. COCCn1c(C)cc(C(=O)COC(=O)c2ccc([N+](=O)[O-])o2)c1C
6. O=C(NC(=S)Nc1ccccc1O)c1cccnc1

Result string:
1. > 54.1 µg/mL
2. > 42.2 µg/mL
3. > 34.5 µg/mL
4. > 42.8 µg/mL
5. > 52.5 µg/mL
6. > 41 µg/mL

Query string: Recorded solubility kinetic of `COC(CNS(=O)(=O)c1cccc2nonc12)OC` , please.
Result string: > 43.1 µg/mL

---

Provide the recorded solubility kinetic for the entries that follow.
Details: buffer; pH 7.4; 200.0 µM

Sample records with solubility kinetic:
compound=O=C(O)CCNC(=O)/C(=C\c1ccco1)NC(=O)c1ccco1 measured_quantity="solubility kinetic" reported_result="> 47.7 µg/mL"
compound="O=C1C2C3C=CC(CC3)C2C(=O)N1/N=C/c1ccco1 (stereo not given)" measured_quantity="solubility kinetic" reported_result="> 40.5 µg/mL"
compound=O=C(Cn1cnc2c(oc3ccccc32)c1=O)N1CCCC1 measured_quantity="solubility kinetic" reported_result="> 44.6 µg/mL"
compound=Cc1ccccc1S(=O)(=O)Nc1ncnc2ccccc12 measured_quantity="solubility kinetic" reported_result="> 44.9 µg/mL"

From here, focus on the item given below.
Query string: Find the recorded solubility kinetic belonging to `Cc1[nH]c2ccc(C(=O)N3CCCC3)cc2c1C` and report it.
Result string: > 36.3 µg/mL
